# target-under-test: Protein deacetylase HDAC6 (Homo sapiens) (UniProt Q9UBN7)
# Sequence (whole entry): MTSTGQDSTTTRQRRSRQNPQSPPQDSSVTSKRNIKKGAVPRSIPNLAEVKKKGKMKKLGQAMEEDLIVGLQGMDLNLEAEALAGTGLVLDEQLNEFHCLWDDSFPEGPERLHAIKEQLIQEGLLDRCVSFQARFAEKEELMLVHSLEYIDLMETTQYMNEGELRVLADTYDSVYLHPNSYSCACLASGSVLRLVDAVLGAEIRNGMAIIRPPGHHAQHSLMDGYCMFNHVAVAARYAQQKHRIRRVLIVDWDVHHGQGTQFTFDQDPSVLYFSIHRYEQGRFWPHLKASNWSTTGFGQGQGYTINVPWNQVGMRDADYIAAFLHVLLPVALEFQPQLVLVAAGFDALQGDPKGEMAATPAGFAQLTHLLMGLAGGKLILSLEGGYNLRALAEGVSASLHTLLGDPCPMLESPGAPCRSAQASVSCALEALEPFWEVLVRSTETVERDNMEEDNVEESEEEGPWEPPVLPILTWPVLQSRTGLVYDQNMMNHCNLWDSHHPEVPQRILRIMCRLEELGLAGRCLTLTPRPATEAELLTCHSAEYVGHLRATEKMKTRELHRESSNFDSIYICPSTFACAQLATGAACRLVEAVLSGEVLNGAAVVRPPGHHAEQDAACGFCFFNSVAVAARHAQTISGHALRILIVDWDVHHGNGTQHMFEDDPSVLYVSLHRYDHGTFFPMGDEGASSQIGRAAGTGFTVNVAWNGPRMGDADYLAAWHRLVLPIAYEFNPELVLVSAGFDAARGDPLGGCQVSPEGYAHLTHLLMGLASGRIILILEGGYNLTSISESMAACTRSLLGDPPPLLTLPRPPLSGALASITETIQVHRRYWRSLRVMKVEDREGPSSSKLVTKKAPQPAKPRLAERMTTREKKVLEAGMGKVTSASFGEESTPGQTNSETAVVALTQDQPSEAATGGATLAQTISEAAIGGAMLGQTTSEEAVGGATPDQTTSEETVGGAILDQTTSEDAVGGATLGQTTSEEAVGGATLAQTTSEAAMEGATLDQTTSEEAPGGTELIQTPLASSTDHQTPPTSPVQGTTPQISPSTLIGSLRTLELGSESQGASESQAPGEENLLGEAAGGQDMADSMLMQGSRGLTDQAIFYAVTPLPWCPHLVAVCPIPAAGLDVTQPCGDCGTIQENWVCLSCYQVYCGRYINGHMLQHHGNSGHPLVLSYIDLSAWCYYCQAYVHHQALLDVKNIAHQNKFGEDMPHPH
# test-context: at 10 µM
The whole screen tested about 5,600 compounds, of which about 390 (7%) showed an effect of 50% or more. This excerpt belongs to a sample that is enriched for strong results.
Below, each of the compounds is paired with its reported inhibition value.
Write the value in % as a bare number.

Worked examples follow.
>  <compound>
CN(C)CCCN1c2ccccc2Sc2ccc(Cl)cc21

>  <inhibition / %>
59.7

$$$$
>  <compound>
CN(C)CCCN1c2ccccc2CCc2ccc(Cl)cc21

>  <inhibition / %>
7.48

$$$$
>  <compound>
O=C(O)COc1cccc(-c2ocnc2-c2nc(-c3ccccc3)c(-c3ccccc3)o2)c1

>  <inhibition / %>
-1.23

$$$$

Data request: Param readout = inhibition; param system = Protein deacetylase HDAC6 (Homo sapiens) (UniProt Q9UBN7); param query = N[C@H]1CCN(O)C1=O ; response: value
Data returned: -4.15

Data request: Param readout = inhibition; param system = Protein deacetylase HDAC6 (Homo sapiens) (UniProt Q9UBN7); param query = COc1ccc(OC)c(CN(C(C)=O)c2cc(F)ccc2Oc2ccccc2)c1 ; response: value
Data returned: 1.27

Data request: Param readout = inhibition; param system = Protein deacetylase HDAC6 (Homo sapiens) (UniProt Q9UBN7); param query = O=c1c2ccccc2nc2n1CCc1c-2[nH]c2ccccc12 ; response: value
Data returned: 84.3

Data request: Param readout = inhibition; param system = Protein deacetylase HDAC6 (Homo sapiens) (UniProt Q9UBN7); param query = COc1cccc(-c2cc(=O)c3ccccc3o2)c1N ; response: value
Data returned: 97.4

Data request: Param readout = inhibition; param system = Protein deacetylase HDAC6 (Homo sapiens) (UniProt Q9UBN7); param query = NC(=O)NC1NC(=O)NC1=O (stereo unspecified) ; response: value
Data returned: 1.79
